target_or_test_system: human GLP-1R receptor (Homo sapiens, UniProt P43220, L260F)
Sequence (P43220 24-463 L260F): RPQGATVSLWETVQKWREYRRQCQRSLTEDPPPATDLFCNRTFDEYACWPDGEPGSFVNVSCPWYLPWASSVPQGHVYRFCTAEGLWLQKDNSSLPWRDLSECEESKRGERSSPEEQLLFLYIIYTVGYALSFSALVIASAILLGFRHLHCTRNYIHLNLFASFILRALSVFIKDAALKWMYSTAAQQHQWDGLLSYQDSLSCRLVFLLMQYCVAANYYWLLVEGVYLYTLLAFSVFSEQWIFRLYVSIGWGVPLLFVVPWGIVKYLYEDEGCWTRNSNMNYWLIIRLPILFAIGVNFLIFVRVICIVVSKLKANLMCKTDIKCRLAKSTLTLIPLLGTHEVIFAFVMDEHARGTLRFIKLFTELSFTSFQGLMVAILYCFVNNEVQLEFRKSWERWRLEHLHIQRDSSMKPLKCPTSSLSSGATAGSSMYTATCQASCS
method_summary: CHOK1 GLP-1R cAMP assay (HTRF)
experimental_parameters: CHO-K1 cells stably expressing human GLP-1R
Field: pEC50. Provide a value for each of the compounds that follow.
In textbook form, pEC50 equals minus log to base ten of the concentration in mol/L.

INPUT: // Input: O=C(O)c1ccc2nc(CN3CCN(c4cccc(OCc5ccc(Cl)cc5F)n4)[C@@H]4COC[C@@H]43)n(Cc3cccnc3)c2c1 (single isomer, unassigned) [Example 21] . Output its pEC50 only.
OUTPUT: 7.13

INPUT: // Input: COc1cc(C(=O)O)cc2c1nc(CN1CCN(c3cccc(OCc4ccc(Cl)cc4F)n3)[C@@H]3COC[C@@H]31)n2C[C@@H]1CCO1 (single isomer, unassigned) [Example 16a] . Output its pEC50 only.
OUTPUT: 9.20

INPUT: // Input: COc1cc(C(=O)O)cc2c1nc(CN1CCN(c3cccc(OCc4ccc(C#N)cc4F)n3)[C@H]3CC[C@@H]31)n2C[C@@H]1CCO1 (single isomer, unassigned) [Example 4b] . Output its pEC50 only.
OUTPUT: 9.22

INPUT: // Input: N#Cc1ccc(COc2cccc(N3CCN(Cc4nc5cc(F)c(C(=O)O)cc5n4C[C@@H]4CCO4)[C@H]4CC[C@@H]43)n2)c(F)c1 (single isomer, unassigned) [Example 9b] . Output its pEC50 only.
OUTPUT: 8.68

INPUT: // Input: N#Cc1ccc(COc2cccc(N3CCN(Cc4nc5ccc(C(=O)O)cc5n4C[C@@H]4CCO4)[C@H]4COC[C@H]43)n2)c(F)c1 (racemic) [Example 17] . Output its pEC50 only.
OUTPUT: 8.70
